B1: STK38L (parent)
chain: FCIDSENRIGNSGVEEIKGHPFFE

Variants of: B1
Assay: protein stability index of a GFP-peptide fusion (GPS, HEK-293T) (PSI 1-6); higher = more stable;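 note: lentivirally expressed fusions sorted by FACS into six bins by GFP to DsRed ratio, PSI derived from sequencing read proportions per bin multiplied by bin number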
Settings: c terminus: a fixed tail appended
Assign class by protein stability index: not lower than 2 means satisfied; lower than 2 means not satisfied.

CONSTRUCT SEQUENCE	GROUP LABEL
FCIDSENRIGNSYVEEIKGHPFFE [G13Y]	satisfied
FCMDSENRIGNSGVEEIKGHPFFE [I3M]	satisfied
FCIDSENRIGNSGVEYIKGHPFFE [E16Y]	not satisfied
FCIDSKNRIGNSGVEEIKGHPFFE [E6K]	satisfied
FCIDSENRIGNSGVEEIKGCPFFE [H20C]	not satisfied
FCYDSENRIGNSGVEEIKGHPFFE [I3Y]	satisfied
FCIDSENRIGNSGVEEFKGHPFFE [I17F]	satisfied
FCIDSENRIGNSGVEFIKGHPFFE [E16F]	satisfied
FCIDSENMIGNSGVEEIKGHPFFE [R8M]	satisfied
FCIDSENRIGNSGSEEIKGHPFFE [V14S]	satisfied
FCIDSENRIGNSGVEEIKGHEFFE [P21E]	satisfied
FCIDSENRIGNSGVEEIKGHPFLE [F23L]	satisfied
DCIDSENRIGNSGVEEIKGHPFFE [F1D]	satisfied
FCIDSENRIGDSGVEEIKGHPFFE [N11D]	satisfied
FCIDSENRIGNSCVEEIKGHPFFE [G13C]	satisfied
FCIDQENRIGNSGVEEIKGHPFFE [S5Q]	satisfied
FCIDSENSIGNSGVEEIKGHPFFE [R8S]	satisfied
FCIDSENRIGNSGVEEILGHPFFE [K18L]	satisfied
FCIDSENRIGNSGVEEIKGHPCFE [F22C]	satisfied
FCIDSTNRIGNSGVEEIKGHPFFE [E6T]	not satisfied

The reported measurements were obtained from the supplement of paper PMC10567573.
